- assay-method-text: GSK_TCAKS: pIC50 HepG2 human cell line viability assay using luminiscence. […] Seeding density was checked to ensure that new mono-layers were not more than 50% confluent at the time of harvesting. Cell suspension was added to 500 mL of the same medium at a final density of 1.2 * 10^5 cells/mL. This cell suspension was dispensed (25 uL, 3000 cells per well) into 384-well clear-bottom plates using a Multidrop Combi dispenser. Prior to addition of the cell suspension, the screening compounds (250 nL) were pre-dispensed into the plates with an Echo liquid handler. Plates were incubated for 48 h at 37C, 5% CO2. After incubation, plates equilibrated at room temperature for 30 min before proceeding to develop the luminescent signal. The signal developer, CellTiter-Glo Reagent, was allowed to equilibrate at room temperature for 30 min and added to the plates (25uL per well) using a Multidrop Combi dispenser. Plates were left for 10 min at room temperature for stabilization and then read using a ViewLux.
- Format: toxicity, cell-based
# key: entry, value: IC50 at 48 h
measured-endpoint: IC50 at 48 h

>  <compound>
Clc1ccc(C(CC2CCCCO2)Cn2cncn2)c(Cl)c1 (stereo not drawn)

>  <measured-endpoint>
IC50 at 48 h

>  <experimental-value>
> 100 µM

$$$$
>  <compound>
O=C(CN(Cc1ccccn1)Cc1ccccn1)NCc1ccc2c(c1)OCO2

>  <measured-endpoint>
IC50 at 48 h

>  <experimental-value>
> 158 µM

$$$$
>  <compound>
Cc1c(C#N)c([N+](=O)[O-])nn1Cc1cccc(Cl)c1Cl

>  <measured-endpoint>
IC50 at 48 h

>  <experimental-value>
79.4 µM

$$$$
